test system: A549; assay: Antiproliferative activity against human A549 cells assessed as inhibition of cell growth incubated for 48 hrs by MTT assay; type: functional, cell-based; conditions: A549, 48 h
Could you mark each record satisfied if its IC50 falls strictly under 10 µM, and not satisfied if it equals or exceeds it?

Ask: Criterion: IC50 strictly below 10 µM. Is it met by COc1ccc(Cn2c3ccccc3c3cc4cn(-c5ccccc5)c[n+]4cc32)cc1 ?
Result: not satisfied

Ask: Is it true that IC50 reported for Cn1c2ccccc2c2cc3cn(-c4cc(F)cc(F)c4)c[n+]3cc21 is less than 10 µM?
Result: not satisfied

Ask: Consider the compound CN(C)c1ccc(-n2cc3cc4c5ccccc5n(C)c4c[n+]3c2)cc1 . Is its IC50 strictly less than 10 µM?
Result: not satisfied

Ask: Say whether its IC50 is strictly beneath 10 µM. Entry: CN(C)c1ccc(-n2cc3cc4c5ccccc5n(Cc5cccc(Cl)c5)c4c[n+]3c2)cc1
Result: not satisfied

Ask: Confirm or reject: IC50 of FC(F)(F)c1cccc(-n2cc3cc4c5ccccc5n(Cc5cccc(Cl)c5)c4c[n+]3c2)c1 lies strictly below 10 µM
Result: satisfied
